SYSTEM TESTED: IRAK4 (Homo sapiens)
Construct: endogenous in cells; host or cells: Karpas299
Sequence (Q9NWZ3 whole entry): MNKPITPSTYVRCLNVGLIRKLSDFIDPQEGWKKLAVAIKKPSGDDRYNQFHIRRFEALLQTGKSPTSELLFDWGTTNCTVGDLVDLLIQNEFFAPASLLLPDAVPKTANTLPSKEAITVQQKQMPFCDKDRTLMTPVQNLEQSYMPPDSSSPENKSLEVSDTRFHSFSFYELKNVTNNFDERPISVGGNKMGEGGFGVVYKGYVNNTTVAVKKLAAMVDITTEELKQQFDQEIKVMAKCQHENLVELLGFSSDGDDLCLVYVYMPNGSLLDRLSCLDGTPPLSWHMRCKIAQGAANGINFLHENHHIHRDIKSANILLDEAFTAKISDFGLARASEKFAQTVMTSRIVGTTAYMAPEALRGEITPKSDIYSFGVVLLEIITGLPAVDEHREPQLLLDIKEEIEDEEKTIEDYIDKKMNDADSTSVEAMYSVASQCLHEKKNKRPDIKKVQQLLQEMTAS
METHOD NOTES: IRAK4 Degradation Assay with Human Serum (Karpas299, HTRF/TR-FRET)
Format: cell-based
CONDITION DESCRIPTION: Karpas-299 in human serum, 24 hrs treatment; read-out: IRAK4 degradtion with human serum assay DC50
Quick list: DC50 per entry.
Please give a number only; it is taken to be in µM.

Example entries and their recorded answers appear below.
INSERT INTO measurements (compound, system_tested, readout_value) VALUES
  ('Cc1cc(N2CCC(N3CCN([C@H]4CC[C@H](n5cc6cc(NC(=O)c7ccc8cc(C#N)cnn78)c(C(C)(C)O)cc6n5)CC4)CC3)CC2)cc(C)c1[C@H]1CCC(=O)NC1=O [Example 289]', 'IRAK4 (Homo sapiens)', 0.019),
  ('CC(C)(O)c1cc2nn(C3CCN(C4CCN(C(=O)C5CN(c6cc(F)c([C@H]7CCC(=O)NC7=O)c(F)c6)C5)CC4)CC3)cc2cc1NC(=O)c1ccc2cc(C#N)cnn12 [Example 346]', 'IRAK4 (Homo sapiens)', 0.0055),
  ('Cc1nc(C2CCC(=O)NC2=O)ccc1N1CC(N2CCN(C3CCC(n4cc5cc(NC(=O)c6ccc7cc(C#N)cnn67)c(C(C)(C)O)cc5n4)CC3)CC2)C1 (stereo not shown) [Example 426]', 'IRAK4 (Homo sapiens)', 0.012),
  ('CC(C)(O)c1cc2nn([C@H]3CC[C@H](N4CCN(CC5CN(c6cc(F)c([C@H]7CCC(=O)NC7=O)c(F)c6)C5)C[C@@H]4CO)CC3)cc2cc1NC(=O)c1ccc2cc(C#N)cnn12 [Example 400]', 'IRAK4 (Homo sapiens)', 0.0038),
  ('CC(C)(O)c1cc2nn([C@H]3CC[C@H](N4CCN([C@H]5C[C@@H](c6cc(F)c([C@H]7CCC(=O)NC7=O)c(F)c6)C5)CC4)CC3)cc2cc1NC(=O)c1ccc2cc(C#N)cnn12 [Example 363]', 'IRAK4 (Homo sapiens)', 0.0059);

Notebook: pull reported DC50 for IRAK4 (Homo sapiens), entry CC(C)(O)c1cc2nn([C@H]3CC[C@H](N4CCN(C[C@H]5CCN(c6ccc7c(c6)C(=O)N(C6CCC(=O)NC6=O)C7=O)C5)CC4)CC3)cc2cc1NC(=O)c1ccc2cc(C#N)cnn12 (stereo partly shown) [Example 432]
0.014

Lab note: need DC50 for CC(C)(O)c1cc2nn([C@H]3CC[C@H](CN4CCN(C5CN(c6cc(F)c([C@H]7CCC(=O)NC7=O)c(F)c6)C5)CC4)CC3)cc2cc1NC(=O)c1ccc2cc(C#N)cnn12 [Example 421] on IRAK4 (Homo sapiens), anyone have it?
0.015

Find the measured DC50: item COC[C@H]1CN([C@H]2CC[C@H](n3cc4cc(NC(=O)c5ccc6cc(C#N)cnn56)c(C(C)(C)O)cc4n3)CC2)CCN1CCc1cc(F)c([C@H]2CCC(=O)NC2=O)c(F)c1 [Example 314] , target or system IRAK4 (Homo sapiens).
0.0034

Which measured DC50 belongs to COC[C@H]1CN(C2CN(c3cc(F)c([C@H]4CCC(=O)NC4=O)c(F)c3)C2)CCN1[C@H]1CC[C@H](n2cc3cc(NC(=O)c4ccc5cc(C#N)cnn45)c(C(C)(C)O)cc3n2)CC1 [Example 323] , tested on IRAK4 (Homo sapiens)?
0.014

What DC50 appears in the records for this compound with IRAK4 (Homo sapiens)? CC(C)(O)c1cc2nn([C@H]3CC[C@H](C4CCN(CC5CN(c6cc(F)c([C@H]7CCC(=O)NC7=O)c(F)c6)C5)CC4)CC3)cc2cc1NC(=O)c1ccc2cc(C#N)cnn12 [Example 390]
0.024

Query the reported DC50 for IRAK4 (Homo sapiens); item: CC(C)(O)c1cc2nn([C@H]3CC[C@H](N4CCN(C(=O)C5CCN(c6ccc7c(c6)C(=O)N(C6CCC(=O)NC6=O)C7=O)CC5)CC4)CC3)cc2cc1NC(=O)c1ccc2cc(C#N)cnn12 (stereo partly shown) [Example 429]
0.032

Lab request: please report DC50 under test system IRAK4 (Homo sapiens) for CC(C)(O)c1cc2nn([C@H]3CC[C@H](N4CCN(C(=O)[C@@H]5CCN(c6cc(F)c(N7CCC(=O)NC7=O)c(F)c6)C5)CC4)CC3)cc2cc1NC(=O)c1ccc2cc(C#N)cnn12 [Example 106]
0.057

Missing value: DC50, IRAK4 (Homo sapiens), entry COC[C@H]1CN(C(=O)C2CN(c3cc(F)c([C@H]4CCC(=O)NC4=O)c(F)c3)C2)CCN1[C@H]1CC[C@H](n2cc3cc(NC(=O)c4ccc5cc(C#N)cnn45)c(C(C)(C)O)cc3n2)CC1 [Example 184] . Fill in?
0.126

Test system IRAK4 (Homo sapiens); read-out DC50; what value for CC(C)(O)c1cc2nn([C@H]3CC[C@H](N4C[C@@H]5CN(CC6CN(c7cc(F)c(C8CCC(=O)NC8=O)c(F)c7)C6)C[C@H]5C4)CC3)cc2cc1NC(=O)c1ccc2cc(C#N)cnn12 (stereo partly shown) [Example 359] ?
0.0042

Fill in the recorded DC50 for this compound, with IRAK4 (Homo sapiens) as test system: CC(C)(O)c1cc2nn([C@H]3CC[C@H](N4CCN(C(=O)[C@@H]5CCN(c6cc(F)c([C@H]7CCC(=O)NC7=O)c(F)c6)C5)CC4)CC3)cc2cc1NC(=O)c1ccc2cc(C#N)cnn12 [Example 181]
0.011

Query the reported DC50 for IRAK4 (Homo sapiens); item: CC(C)(O)c1cc2nn([C@H]3CC[C@H](N4CCN(C5CN(c6cc(F)c([C@H]7CCC(=O)NC7=O)c(F)c6)C5)CC4=O)CC3)cc2cc1NC(=O)c1ccc2cc(C#N)cnn12 [Example 335]
0.064

Recall the recorded DC50 for CC(C)(O)c1cc2nn(C34CC(N5CCN(CC6CN(c7cc(F)c([C@H]8CCC(=O)NC8=O)c(F)c7)C6)CC5)(C3)C4)cc2cc1NC(=O)c1ccc2cc(C#N)cnn12 [Example 332] with IRAK4 (Homo sapiens) and state it.
0.01

Checklist item: DC50 tested on IRAK4 (Homo sapiens), entry CC(C)(O)c1cc2nn([C@H]3CC[C@H](CN4CCN(CCNc5cccc6c5C(=O)N(C5CCC(=O)NC5=O)C6=O)CC4)CC3)cc2cc1NC(=O)c1ccc2cc(C#N)cnn12 (stereo partly shown) [Example 438] , value?
0.017

Notebook entry, IRAK4 (Homo sapiens) assay: DC50 of Cc1cc(C2CCC(=O)NC2=O)c(F)cc1[C@H]1C[C@H](N2CCN([C@H]3CC[C@H](n4cc5cc(NC(=O)c6ccc7cc(C#N)cnn67)c(C(C)(C)O)cc5n4)CC3)CC2)C1 (stereo partly shown) [Example 297] = ?
0.006

Every entry's value here was drawn from patent US20250195513A1.
